test: in vitro; conditions: human (5637 cells, CC50); Escherichia coli (UTI89, IC50), Fold Selective (CC50/IC50), commercial sample, SID 103147605
metric: selectivity ratio

Sample CCOc1ccc(-c2cc(NC(=O)c3c(F)cccc3F)c(C(=O)O)s2)cc1 ; selectivity ratio observed: 10.5

---

Assay: Cytotoxicity counterscreen, CellTiter Glo, 72 hr
Type: cell-based, human
Settings: human, bladder carcinoma 5637 cells (ATCC HTB-9), commercial sample, SID 103147605; read-out: Mammalian cell toxicity CC50
Method: B. Counterscreen: Cytotoxicity Screening for Potential Inhibitors of Bacterial Capsule Biogenesis. Purpose: This cell-based assay measures the cytotoxicity of compounds in bladder carcinoma 5637 cells using luminescent cell viability assay readout. […] Assay Description: Cytotoxicity: Dose response testing (dose range=300-0.58 μM) established the hit cytotoxicity data. […] Bladder carcinoma 5637 cells were added to the compounds, and 72 hr later cell viability was measured using CellTiter Glo (38). […]
metric: CC50 at 72 h (µM)
Give the quantity in µM, number only.

The reported value for CCOc1ccc(-c2cc(NC(=O)c3c(F)cccc3F)c(C(=O)O)s2)cc1 in terms of CC50 at 72 h is 47.2
